src = patent US20190202907A1

- target-entity: cyno ST2L (cyno)
- measurement-notes: affinity table; method not stated
Please provide measured Kd for the entries that follow.
Output spec: scalar in nM, unitless text.

Query string: Please give measured Kd of the following entry: STLM103 (antibody, from another filing, V domains shown) VH: EVQLLESGGGLVQPGGSLRLSCAASGFTFSFYDMFWVRQAPGKGLEWVSSIRGEGGRTDYADSVKGRFTISRDNSKNTLYLQMNSLRAEDTAVYYCARDPWSTEGSFFVLDYWGQGTLVTVSS VL: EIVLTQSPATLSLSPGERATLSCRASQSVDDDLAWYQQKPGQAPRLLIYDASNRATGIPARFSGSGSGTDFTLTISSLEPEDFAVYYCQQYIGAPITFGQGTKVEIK
Result string: 0.031

Query string: Specify Kd for STLM229 (antibody, from another filing, V domains shown) VH: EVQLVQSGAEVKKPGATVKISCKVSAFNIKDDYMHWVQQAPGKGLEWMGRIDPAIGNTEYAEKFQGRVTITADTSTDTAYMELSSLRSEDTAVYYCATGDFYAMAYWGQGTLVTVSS VL: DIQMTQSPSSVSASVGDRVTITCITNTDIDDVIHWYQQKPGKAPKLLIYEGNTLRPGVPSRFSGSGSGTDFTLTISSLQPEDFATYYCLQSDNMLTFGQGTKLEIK and stop.
Result string: 0.085

Query string: Using the record for STLM214 (antibody, from another filing, V domains shown) VH: EVQLLESGGGLVQPGGSLRLSCAASGFTFSSYDMFWVRQAPGKGLEWVSDIKGEGGRTAYADSVKGRFTISRDNSKNTLYLQMNSLRAEDTAVYYCARDPWSTEGSFFVLDYWGQGTLVTVSS VL: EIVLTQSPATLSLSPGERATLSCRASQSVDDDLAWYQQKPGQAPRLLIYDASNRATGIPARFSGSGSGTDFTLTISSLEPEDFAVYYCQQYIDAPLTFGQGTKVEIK , state its measured Kd.
Result string: 0.037
